These measurements were taken from patent US20200317779A1.

ASSAYED_TARGET: recombinant cynomolgus monkey CD3ε/δ heterodimer (cynomolgus monkey) (UniProt Q95LI5)
Sequence (Q95LI5 22-117, stated change not applied, chain 1 of 2): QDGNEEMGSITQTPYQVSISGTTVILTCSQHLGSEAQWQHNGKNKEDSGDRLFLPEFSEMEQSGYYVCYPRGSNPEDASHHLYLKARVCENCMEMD
Sequence (Q95LI8 22-105, stated change not applied, chain 2 of 2, further chain): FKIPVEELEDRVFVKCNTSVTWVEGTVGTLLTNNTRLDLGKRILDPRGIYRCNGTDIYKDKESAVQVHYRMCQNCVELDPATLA
PROTOCOL: BLI (Octet), antigen on anti-Penta His sensor, antibody 50 nM
Binary label based on Kd with cut-off 0.7 nM: below gives Met, not below gives Not met.

Look over these answered cases.
- BINDER: "C15 (antibody, human IgG1, lambda, L234A L235A, V domains shown) VH: EVQLVESGGGLVQPGGSLKLSCAASGFTFNTYAMNWVRQASGKGLEWVGRIRSKYNNYATYYADSVKDRFTISRDDSQSTAYLQMNSLKTEDTAVYYCVRHGNFGNSYVSWFAYWGQGTLVTVSS VL: QAVVTQEPSLTVSPGGTVTLTCRSSTGAVTTSNYANWVQQKPGQAPRGLIGGTNKRAPWTPARFSGSLLGGKAALTLSGAQPEDEAEYYCALWYSNLWVFGGGTKLTVLG"
  GROUP_LABEL: "Met"
- BINDER: "D16 (antibody, human IgG1, lambda, L234A L235A, V domains shown) VH: EVQLVESGGGLVQPGGSLKLSCAASGFTFNTYAMNWVRQASGKGLEWVGRIRSKYNNYATYYADSVKDRFTISRDDSQSTLYLQMNSLKTEDTAVYYCVRHGNFGNSYVSWFAYWGQGTLVTVSS VL: QAVVTQEPSLTVSPGGTVTLTCRSSTGAVTTSNYANWVQQKPGQAPRGLIGGTNKRAPWTPARFSGSLLGDKAALTLSGAQPEDEAEYYCALWYSNLWVFGGGTKLTVLG"
  GROUP_LABEL: "Met"
- BINDER: "C16 (antibody, human IgG1, lambda, L234A L235A, V domains shown) VH: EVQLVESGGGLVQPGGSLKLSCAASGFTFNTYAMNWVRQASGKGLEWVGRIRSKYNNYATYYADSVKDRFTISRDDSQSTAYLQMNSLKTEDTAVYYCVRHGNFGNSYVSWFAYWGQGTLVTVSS VL: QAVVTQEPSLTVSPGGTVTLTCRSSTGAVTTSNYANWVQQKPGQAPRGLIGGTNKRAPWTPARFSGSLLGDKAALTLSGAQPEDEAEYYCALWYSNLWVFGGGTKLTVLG"
  GROUP_LABEL: "Not met"
- BINDER: "Mouse human chimeric SP34 IgG1 antibody (antibody, V domains shown) VH: EVQLVESGGGLVQPKGSLKLSCAASGFTFNTYAMNWVRQAPGKGLEWVARIRSKYNNYATYYADSVKDRFTISRDDSQSILYLQMNNLKTEDTAMYYCVRHGNFGNSYVSWFAYWGQGTLVTVSS VL: QAVVTQESALTTSPGETVTLTCRSSTGAVTTSNYANWVQEKPDHLFTGLIGGTNKRAPGVPARFSGSLIGDKAALTITGAQTEDEAIYFCALWYSNLWVFGGGTKLTVLG"
  GROUP_LABEL: "Met"

Shift focus to the following entry.
**Q:** Could you please tell me whether Kd recorded for F16 (antibody, human IgG1, lambda, L234A L235A, V domains shown) VH: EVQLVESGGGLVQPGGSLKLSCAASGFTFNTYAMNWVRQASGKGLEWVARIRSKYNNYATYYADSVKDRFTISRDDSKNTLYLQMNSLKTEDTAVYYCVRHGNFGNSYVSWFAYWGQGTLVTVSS VL: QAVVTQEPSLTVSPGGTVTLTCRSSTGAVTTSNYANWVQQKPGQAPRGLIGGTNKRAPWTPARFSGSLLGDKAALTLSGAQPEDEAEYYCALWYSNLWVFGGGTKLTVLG is less than 0.7 nM?
**A:** Not met
